Parameter tissue to tissue ratio at 4 h: see the listing below.
- EXPERIMENT_NOTES: in vivo
- Parameters: species or system mice
- MEASUREMENT_SETUP: C57, mouse, iv, 0.037 MBq, total radioactivity, Uptake ratio Tumor/blood
Positions of bridges follow the written chain, without caps; N, C: chain ends. Non-standard residues stand in square brackets, D forms with d. Residues, ends and D or L forms follow the SMILES beside them. *: point of attachment. NOTA = O=C(O)CN1CCN(CC(=O)O)CCN(CC(=O)*)CC1; Nle = CCCC[C@H](N)C(=O)O
No unit in the answer, please; the number alone is enough.

[[record]]
compound = "CCCC[C@H](NC(=O)CNC(=O)CNC(=O)CN1CCN(CC(=O)O)CCN(CC(=O)O)CC1)C(=O)N[C@H]1CC(=O)NCCCC[C@@H](C(N)=O)NC(=O)[C@H](Cc2c[nH]c3ccccc23)NC(=O)[C@H](CCCNC(=N)N)NC(=O)[C@@H](Cc2ccccc2)NC(=O)[C@H](Cc2c[nH]cn2)NC1=O [^67Cu-NOTA-GGNle-CycMSHhex, ^67Cu-NOTA-GlyGlyNle-CycMSHhex, metal not drawn] ({NOTA}-GG[Nle]DH[dF]RWK-NH2; lactam 4-9)"
recorded_value = 146


Q: Entry CCCC[C@H](NC(=O)COCCOCCNC(=O)CN1CCN(CC(=O)O)CCN(CC(=O)O)CC1)C(=O)N[C@H]1CC(=O)NCCCC[C@@H](C(N)=O)NC(=O)[C@H](Cc2c[nH]c3ccccc23)NC(=O)[C@H](CCCNC(=N)N)NC(=O)[C@@H](Cc2ccccc2)NC(=O)[C@H](Cc2c[nH]cn2)NC1=O [^67Cu-NOTA-PEG2Nle-CycMSHhex, metal not drawn] has what tissue to tissue ratio at 4 h?
Ans: 482

The measurements presented in this section are drawn from paper PMC10216305.
